Origin of measurements: ChEMBL document CHEMBL1142248

test: Volume of distribution at steady state in mouse at 100 mg/kg, po or 10 mg/kg, iv; format: ADME, organism-based; details: in vivo, read-out: Vdss
Endpoint: Vd (L/kg)
Answers are plain numbers, in L/kg.

Please look at this compound and report its Vd: COc1cccc(OC)c1C1(C(=O)[N-]S(=O)(=O)Cc2ccc(N3Cc4c(c(OCC(F)(F)F)c5cccnc5c4OCC(F)(F)F)C3=O)c(C)c2)CC1.[Na+]
0.7

---

experiment: Bioavailability in dog at 4 mg/kg, po or 5 mg/kg, iv; format: ADME, organism-based, Canis lupus familiaris; conditions: in vivo
Endpoint: bioavailability
Report field: quantity (unit follows the number).

Please look at this compound and report its bioavailability: COc1cccc(OC)c1C1(C(=O)[N-]S(=O)(=O)Cc2ccc(N3Cc4c(c(OCC(F)(F)F)c5cccnc5c4OCC(F)(F)F)C3=O)c(C)c2)CC1.[Na+]
69%

---

test: Bioavailability in rhesus monkey at 4 mg/kg, po or 2 mg/kg, iv; type: ADME, organism-based, Macaca mulatta; details: in vivo
Endpoint: bioavailability (%)
One number for each entry, in %.

Please look at this molecule and report its bioavailability: COc1cccc(OC)c1C1(C(=O)[N-]S(=O)(=O)Cc2ccc(N3Cc4c(c(OCC(F)(F)F)c5cccnc5c4OCC(F)(F)F)C3=O)c(C)c2)CC1.[Na+]
40

---

biological target: Prostaglandin E2 receptor EP4 subtype (Homo sapiens, UniProt P35408); assay: Binding affinity to human EP4 receptor expressed in HEK293 cells; type: cell-based
Sequence (P35408 whole entry): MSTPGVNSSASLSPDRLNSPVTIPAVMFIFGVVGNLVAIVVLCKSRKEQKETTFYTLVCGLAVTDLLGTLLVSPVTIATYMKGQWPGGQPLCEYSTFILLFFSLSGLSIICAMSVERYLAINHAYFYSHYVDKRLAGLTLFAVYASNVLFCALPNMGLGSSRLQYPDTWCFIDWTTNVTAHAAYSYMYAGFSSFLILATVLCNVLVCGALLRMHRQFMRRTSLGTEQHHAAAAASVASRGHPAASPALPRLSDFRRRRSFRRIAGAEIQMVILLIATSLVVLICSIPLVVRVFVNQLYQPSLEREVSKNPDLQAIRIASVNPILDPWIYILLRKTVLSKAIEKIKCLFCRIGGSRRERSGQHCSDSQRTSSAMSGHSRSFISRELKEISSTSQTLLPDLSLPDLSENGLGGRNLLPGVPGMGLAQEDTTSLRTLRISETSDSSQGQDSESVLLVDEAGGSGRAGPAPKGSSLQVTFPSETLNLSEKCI
Endpoint: pKi
Answers are plain numbers, as −log10 of the molar value.

In [3]: df
Out[3]:
                           structure_string  number
0  CCOc1c2c(c(OCC)c3ccccc13)C(=O)N(c1ccc(CS(=O)(=O)NC(=O)C(c3ccccc3)c3ccccc3)cc1)C2    8.10
1  CCOc1ccccc1CC(=O)NS(=O)(=O)Cc1ccc(N2Cc3c(c(OCC)c4cccnc4c3OCC)C2=O)c(C)c1    9.57
2  CCOc1c2c(c(OCC)c3ncccc13)CN(c1ccc(CS(=O)(=O)NC(=O)Cc3ccccc3Cl)cc1C)C2=O    9.57
3  CCOc1c2c(c(OCC)c3ncccc13)CN(c1ccc(CS(=O)(=O)NC(=O)C3(c4c(OC)cccc4OC)CC3)cc1C)C2=O    9.27
4  CCOc1c2c(c(OCC)c3ccccc13)C(=O)N(c1ccc(CS(=O)(=O)NC(=O)Cc3ccccc3)cc1C)C2    9.60

Hey, can you go through the list below and give me pKi for every item?
1. COc1ccccc1CC(=O)NS(=O)(=O)Cc1ccc(N2Cc3c(c(OC(C)C)c4cccnc4c3OC(C)C)C2=O)c(C)c1
2. CCOc1c2c(c(OCC)c3ncccc13)CN(c1ccc(CS(=O)(=O)NC(=O)Cc3ccncc3)cc1C)C2=O

[9.44, 8.01]

---

test: Half life in rat at 5 mg/kg, iv; format: ADME, organism-based; design: dose 5 mg/kg, route intravenous; details: in vivo
Endpoint: half-life (h)
Answers are plain numbers, in h.

Please look at this compound and report its half-life: CCOc1c2c(c(OCC)c3ncccc13)CN(c1ccc(CS(=O)(=O)[N-]C(=O)Cc3ccccc3OC)cc1C)C2=O.[Na+]
2.7

---

test: Volume of distribution at steady state in rat at 20 mg/kg, po or 5 mg/kg, iv; type: ADME, organism-based; details: in vivo, read-out: Vdss
Endpoint: Vd

Please look at this molecule and report its Vd: CCOc1c2c(c(OCC)c3ncccc13)CN(c1ccc(CS(=O)(=O)[N-]C(=O)Cc3ccccc3OC)cc1C)C2=O.[Na+]
1.6 L/kg
